test-conditions: human;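 further: human cytolytic liver injury, shown by histopathology or by a ratio above 5 of peak ALT or AST elevation to alkaline phosphatase elevation, value counts indexed references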
*1 amine or outer side, *2 acyl side, *3 side chain or, on linkers, in order; H or OH if unused. Where a SMILES comes first, the peptide text is derived from it. Bridges are numbered along the chain shown (N, C = ends). Roman numbers before positions name the chains, in order. [ ]: non-standard residue; d: D form. Actinocin(9to1) = Cc1c2oc3c(C)ccc(C(=O)[*:1])c3nc-2c(C(=O)[*:2])c(N)c1=O; NMeV = CN[C@H](C(=O)O)C(C)C; Sar = CNCC(=O)O
reported-property: Hepatotoxicity (cytolytic)
Answer as a number with no unit attached.

query: Need Hepatotoxicity (cytolytic), item Cc1c(N(C)CS(=O)(=O)[O-])c(=O)n(-c2ccccc2)n1C.[Na+] [DIPYRONE SODIUM]
result: 0

query: Given the compound CO/N=C(\C(=O)N[C@@H]1C(=O)N2C(C(=O)O)=C(CSc3cnns3)CS[C@H]12)c1csc(N)n1 [CEFUZONAM] , what is its reported Hepatotoxicity (cytolytic)?
result: 0

query: Consider the compound CC(C(=O)O)c1ccc(C(=O)c2ccccc2)s1 (centres undefined) [TIAPROFENIC ACID] and give its measured Hepatotoxicity (cytolytic).
result: 2

query: Need Hepatotoxicity (cytolytic) of CNC(=O)c1c(I)c(C(=O)NCC(=O)Nc2c(I)c(C(=O)O)c(I)c(C(=O)NCCO)c2I)c(I)c(N(C)C(C)=O)c1I [IOXAGLIC ACID] , thanks.
result: 1

query: What measured Hepatotoxicity (cytolytic) goes with CC(C)(C#N)c1cc(Cn2cncn2)cc(C(C)(C)C#N)c1 [ANASTROZOLE] ?
result: 0

query: // Hepatotoxicity (cytolytic) lookup, key: Cc1cn([C@H]2C=C[C@@H](CO)O2)c(=O)[nH]c1=O [STAVUDINE]
result: 22

query: Form field: reported Hepatotoxicity (cytolytic) of C[C@H](CCC(=O)O)[C@H]1CC[C@H]2[C@@H]3[C@H](O)C[C@@H]4C[C@H](O)CC[C@]4(C)[C@H]3CC[C@]12C [CHENODIOL]
result: 3

query: For the compound shown here, COCCCC/C(=N\OCCN)c1ccc(C(F)(F)F)cc1 [FLUVOXAMINE] , give the reported Hepatotoxicity (cytolytic).
result: 1

query: Could you share which Hepatotoxicity (cytolytic) value was measured for CC#C[C@]1(O)CC[C@H]2[C@@H]3CCC4=CC(=O)CCC4=C3[C@@H](c3ccc(N(C)C)cc3)C[C@@]21C [MIFEPRISTONE] ?
result: 1

query: Can you look up the measured Hepatotoxicity (cytolytic) of O=C1CC2(CCCC2)CC(=O)N1CCCCN1CCN(c2nsc3ccccc23)CC1 [TIOSPIRONE] for me?
result: 0

query: For the compound shown here, O=C(O)c1ccccc1Nc1cccc(C(F)(F)F)c1 [FLUFENAMIC ACID] , give the reported Hepatotoxicity (cytolytic).
result: 0

query: May I ask what Hepatotoxicity (cytolytic) has been recorded for CCCCCCCCCCCCCCCCSCC(COC)COP(=O)([O-])OCC[N+](C)(C)C (centres undefined) [ILMOFOSINE] ?
result: 0

query: Bench note: what Hepatotoxicity (cytolytic) did CCCC1O[C@@H]2C[C@H]3[C@@H]4CCC5=CC(=O)C=C[C@]5(C)[C@H]4[C@@H](O)C[C@]3(C)[C@]2(C(=O)CO)O1 (some centres undefined) [BUDESONIDE] show?
result: 1

query: Reported Hepatotoxicity (cytolytic) for CN(C)[C@@H]1C(O)=C(C(=O)NCNCCCC[C@H](N)C(=O)O)C(=O)[C@@]2(O)C(O)=C3C(=O)c4c(O)cccc4[C@@](C)(O)[C@H]3C[C@@H]12 [LYMECYCLINE] : what is it?
result: 1

query: Field request: Hepatotoxicity (cytolytic) | item: CCn1nc(C(=O)O)c(=O)c2cc3c(cc21)OCO3 [CINOXACIN]
result: 0

query: # Hepatotoxicity (cytolytic) lookup, item Cc1ccc(C)c(OCCCC(C)(C)C(=O)O)c1 [GEMFIBROZIL]
result: 1

query: Requested read-out: Hepatotoxicity (cytolytic). Entry: N[C@@H](Cc1cc(I)c(Oc2cc(I)c(O)c(I)c2)c(I)c1)C(=O)O [LEVOTHYROXINE]
result: 0

query: For the compound Nc1c(CC(=O)O)cccc1C(=O)c1ccc(Br)cc1 [BROMFENAC] , what Hepatotoxicity (cytolytic) is on record?
result: 7

query: Can you share its Hepatotoxicity (cytolytic)? I mean this compound: O=C(O)Cc1ccccc1Oc1ccc(Cl)cc1Cl [FENCLOFENAC]
result: 0

query: Quick one: Hepatotoxicity (cytolytic) of CCCC(=O)O[C@H]1[C@H](C)O[C@@H](O[C@H]2[C@H](N(C)C)[C@@H](O)[C@H](O[C@H]3[C@@H](CC=O)C[C@@H](C)[C@@H](O)/C=C/C=C/C[C@@H](C)OC(=O)C[C@@H](O)[C@@H]3OC)O[C@@H]2C)C[C@@]1(C)OC(=O)CC [ROKITAMYCIN] ?
result: 0

query: What measured Hepatotoxicity (cytolytic) goes with Cc1c2oc3c(C)ccc(C(=O)N[C@@H]4C(=O)N[C@H](C(C)C)C(=O)N5CCC[C@H]5C(=O)N(C)CC(=O)N(C)[C@@H](C(C)C)C(=O)O[C@@H]4C)c3nc-2c(C(=O)N[C@@H]2C(=O)N[C@H](C(C)C)C(=O)N3CCC[C@H]3C(=O)N(C)CC(=O)N(C)[C@@H](C(C)C)C(=O)O[C@@H]2C)c(N)c1=O [DACTINOMYCIN] (I: T[dV]P[Sar][NMeV] / II: T[dV]P[Sar][NMeV]; ester I:1-I:C, II:1-II:C; linker I:N-II:N via Actinocin(9to1)) ?
result: 5

query: Returns the measured Hepatotoxicity (cytolytic) for the input compound. Input: N[C@H](C(=O)O)[C@@H]1CC(Cl)=NO1 [ACIVICIN]
result: 0

query: Entry CCOC(=O)[C@H](CCc1ccccc1)N[C@@H](C)C(=O)N(CC(=O)O)C1Cc2ccccc2C1 : reported Hepatotoxicity (cytolytic) = ?
result: 0

query: # lookup: Hepatotoxicity (cytolytic) of C[C@H]1C[C@@H]2[C@H]([C@@H](O)C[C@@]3(C)[C@H]2CC[C@]3(O)C(=O)CO)[C@@]2(C)C=CC(=O)C=C12 [METHYLPREDNISOLONE]
result: 2

query: What value of Hepatotoxicity (cytolytic) has been reported for the following compound? COc1ccc(/C=C/C(=O)Nc2ccccc2C(=O)O)cc1OC
result: 0

query: Hepatotoxicity (cytolytic) for CCC1(c2ccccc2)C(=O)NC(=O)NC1=O [PHENOBARBITAL] ?
result: 23

query: Would you mind telling me what Hepatotoxicity (cytolytic) value was observed for O=c1n(CC2CO2)c(=O)n(CC2CO2)n1CC1CO1 (centres undefined) [ANAXIRONE] ?
result: 0

query: Which measured Hepatotoxicity (cytolytic) value corresponds to CN1C(=O)CCS(=O)(=O)C1c1ccc(Cl)cc1 (centres undefined) [CHLORMEZANONE] ?
result: 1

query: May I ask what Hepatotoxicity (cytolytic) has been recorded for CC(=O)[C@@]1(O)CC[C@H]2[C@@H]3C=C(C)C4=CC(=O)CC[C@@H]4[C@H]3CC[C@@]21C [NOMEGESTROL] ?
result: 2
